Organ distribution of F-18 signal, femur reference
Experiment: Biodistribution: organ distribution of F-18 signal in mice
Assay type: in vivo, male NMRI mice
Conditions: femur, 60 min post i.v. injection
Hi! Could you send only the number? It should be in % ID/g, unit omitted.

Some molecules with recorded Organ distribution of F-18 signal, femur:
[[record]]
molecule = "O=C(NCC(=O)N1CCN(c2ccc(OCc3ccccc3)cc2)CC1)c1ccnc([18F])c1 [Example 11c]"
assay_endpoint = "Organ distribution of F-18 signal, femur"
test_result = 0.38

[[record]]
molecule = "O=C(NCC(=O)N1CCN(c2ccc(OCc3ccccc3)cn2)CC1)c1ccnc([18F])c1 [Example 14f]"
assay_endpoint = "Organ distribution of F-18 signal, femur"
test_result = 0.24

[[record]]
molecule = "O=C(NCC(=O)N1CCN(c2ccc(OCc3ccccc3)cc2)CC1)c1cccc(OCC[18F])c1 [Example 3g]"
assay_endpoint = "Organ distribution of F-18 signal, femur"
test_result = 1.11

[[record]]
molecule = "O=C(NCC(=O)N1CCN(c2ccc(OCc3ccccc3)cc2)CC1)c1cccnc1[18F] [Example 12c]"
assay_endpoint = "Organ distribution of F-18 signal, femur"
test_result = 7.65


// Organ distribution of F-18 signal, femur lookup, molecule = O=C(NCC(=O)N1CCN(c2ccc(OCc3ccccc3)cc2)CC1)c1ccc([18F])nc1 [Example 10e] , result: 1.43
